FYI, the data here is from patent US20180230213A1.

Target: T1, monomeric recombinant cynomologus monkey Notch3 extracellular domain (containing EGF like domains 1-12) … (cynomologus monkey)
T1 construct: domain: EGF like domains 1-12; also called monomeric rcNotch3
Assay: SPR BIAcore T100, antibody captured by anti-human IgG Fc, monomeric rcNotch3 analyte, 25 C
Mark each entry yes if its Kd sits below 3 nM, and no for all others.

Solved entries (count: 4):
Binder	Label
Hu4F11-79 (antibody, human IgG1, kappa, V domains shown, Humanized, human IgG1 kappa; Hv3-23 A28T T62S heavy + Kv2D-29 N28Q kappa) VH: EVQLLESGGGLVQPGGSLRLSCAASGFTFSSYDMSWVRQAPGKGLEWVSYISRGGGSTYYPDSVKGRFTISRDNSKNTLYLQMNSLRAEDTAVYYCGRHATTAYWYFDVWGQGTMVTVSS VL: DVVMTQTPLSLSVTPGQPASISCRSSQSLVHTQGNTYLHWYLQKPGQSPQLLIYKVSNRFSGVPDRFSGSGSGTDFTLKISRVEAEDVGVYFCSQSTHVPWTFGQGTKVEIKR	no
Hu4F11-80 (antibody, human IgG1, kappa, V domains shown, Humanized, human IgG1 kappa; Hv3-23 S31H T62S heavy + Kv2D-29 N28Q kappa) VH: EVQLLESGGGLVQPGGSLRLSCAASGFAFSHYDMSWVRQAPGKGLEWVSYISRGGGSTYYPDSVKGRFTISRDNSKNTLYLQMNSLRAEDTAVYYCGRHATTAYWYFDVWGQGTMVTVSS VL: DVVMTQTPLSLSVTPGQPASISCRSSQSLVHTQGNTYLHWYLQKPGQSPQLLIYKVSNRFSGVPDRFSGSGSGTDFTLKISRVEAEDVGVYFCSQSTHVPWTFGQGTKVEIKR	no
Hu4F11-74 (antibody, human IgG1, kappa, V domains shown, Humanized, human IgG1 kappa; Hv3-23 A28T S31H T62S heavy + Kv2D-29 N28Y kappa) VH: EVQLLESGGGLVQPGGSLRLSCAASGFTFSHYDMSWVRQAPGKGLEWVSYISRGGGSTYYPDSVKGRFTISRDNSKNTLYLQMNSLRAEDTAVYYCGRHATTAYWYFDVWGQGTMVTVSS VL: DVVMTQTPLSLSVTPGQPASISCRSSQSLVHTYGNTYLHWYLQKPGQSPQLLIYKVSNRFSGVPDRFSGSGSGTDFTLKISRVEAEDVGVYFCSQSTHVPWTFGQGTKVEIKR	yes
Hu4F11-78 (antibody, human IgG1, kappa, V domains shown, Humanized, human IgG1 kappa; Hv3-23 A28T S31H T62S heavy + Kv2D-29 N28Q kappa) VH: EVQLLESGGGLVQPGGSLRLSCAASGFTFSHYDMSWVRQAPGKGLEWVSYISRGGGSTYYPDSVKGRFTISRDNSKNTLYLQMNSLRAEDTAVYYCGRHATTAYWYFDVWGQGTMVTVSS VL: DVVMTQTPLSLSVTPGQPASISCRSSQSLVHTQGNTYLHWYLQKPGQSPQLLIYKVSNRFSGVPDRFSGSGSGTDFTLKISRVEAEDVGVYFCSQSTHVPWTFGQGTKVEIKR	yes

Continue with the binder presented below.
**Query** Is the reported Kd for Hu4F11-73 (antibody, human IgG1, kappa, V domains shown, Humanized, human IgG1 kappa; Hv3-23 A28T S31N T62S heavy + Kv2D-29 N28Y kappa) VH: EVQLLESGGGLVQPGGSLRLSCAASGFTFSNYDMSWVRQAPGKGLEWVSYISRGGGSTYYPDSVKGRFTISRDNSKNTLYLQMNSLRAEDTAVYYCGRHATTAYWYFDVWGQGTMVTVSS VL: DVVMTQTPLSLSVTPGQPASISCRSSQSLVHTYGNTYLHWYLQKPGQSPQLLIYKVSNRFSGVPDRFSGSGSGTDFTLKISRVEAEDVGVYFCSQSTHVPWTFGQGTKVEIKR strictly below 3 nM?
**Result** yes
